System: L1210 leukemia ip in BDF1 mice, survival T/C
method-description: NCI In Vivo Anticancer Drug Screen. Data for tumor model L1210 Leukemia (intraperitoneal) in B6D2F1 (BDF1) mice
experimental-context: endpoint: mean survival time; dose: 100.0 mg/kg/injection; schedule: Q01DX001 (ip); vehicle: saline; higher = longer survival
Inconclusive results and toxic doses are left out.
reported-metric: T/C

# return recorded T/C for entry `COc1ccc(OC)c2c(=O)c(C(=O)O)c[nH]c12` 102 % of control

# return recorded T/C for entry `Cc1ccc(S(=O)(=O)N(Cl)Cl)cc1` 110 % of control

# return recorded T/C for entry `CCCCCCCCCCSCCO` 102 % of control

# return recorded T/C for entry O=C(O)C1CCCN1[N+](=O)[O-] (configuration not stated) 100 % of control

# return recorded T/C for entry CC(=O)OC12C=CC(C(C)=C1)C1C(=O)C=CC(=O)C12 (configuration not stated) 103 % of control

# return recorded T/C for entry `Cn1c(=O)cc(C=Nc2ccc(C(=O)O)cc2)c2ccccc21` 100 % of control

# return recorded T/C for entry `O=CN/N=C/c1c[nH]c(=O)[nH]c1=O` 101 % of control

# return recorded T/C for entry CCC(C)NNCCO (configuration not stated) 103 % of control

# return recorded T/C for entry `CC1(C)N=C(N)N=C(N)N1c1cccc(OCCCC#N)c1` 101 % of control

# return recorded T/C for entry CC(Br)CN1CCOCC1 (configuration not stated) 103 % of control

# return recorded T/C for entry `Cc1ccc(S(=O)(=O)Nc2ccc3ncccc3c2[N+](=O)[O-])cc1` 94 % of control

# return recorded T/C for entry CCOC(=O)C1(C)CCN(C)C1=O (configuration not stated) 96 % of control

# return recorded T/C for entry `O=C(Nc1cccc2ccccc12)C(F)(F)F` 93 % of control

# return recorded T/C for entry `CCOC(=O)C(CCC(c1ccc(OC)cc1)c1ccc(OC)cc1)C(=O)OCC` 98 % of control

# return recorded T/C for entry CCC1(O)C(=O)OCc2c1cc1n(c2=O)CCC1 (configuration not stated) 101 % of control

# return recorded T/C for entry `O=Cc1cc(Br)ccc1[N+](=O)[O-]` 103 % of control

# return recorded T/C for entry O=S(=O)(Oc1ccc(-c2ccccc2)cc1)C1CC1c1ccccc1 (configuration not stated) 93 % of control

# return recorded T/C for entry `Oc1ccc(/C=N/Nc2nnc(N/N=C/c3ccc(O)cc3O)c3ccccc23)c(O)c1` 97 % of control

# return recorded T/C for entry O=C1C=C2CCN(C(=O)c3ccccc3)CC2O1 (configuration not stated) 100 % of control

# return recorded T/C for entry Cc1cn(C2CCCO2)c(=O)[nH]c1=O (configuration not stated) 106 % of control

# return recorded T/C for entry `NC(=O)NC12CC3CC(CC(C3)C1)C2` 89 % of control

# return recorded T/C for entry `O=C1CCCCC(=O)OCCC1` 93 % of control

# return recorded T/C for entry CC(C)(c1ccc(OCC2CO2)cc1)c1ccc(OCC2CO2)cc1 (configuration not stated) 101 % of control

# return recorded T/C for entry `CC(=O)NC(Cc1ccsc1)(C(=O)O)C(=O)O` 93 % of control

# return recorded T/C for entry CC(NC(=O)C(NC(=O)c1cnc2ccccc2n1)C(C)C)C(=O)O (configuration not stated) 94 % of control

# return recorded T/C for entry `Nc1ncnn1C(=O)OCc1ccccc1` 98 % of control

# return recorded T/C for entry `C=C(C)CC/C=C/C` 115 % of control
